- testedSystem: Neuromedin-K receptor (Homo sapiens, UniProt P29371)
- Sequence (P29371 whole entry): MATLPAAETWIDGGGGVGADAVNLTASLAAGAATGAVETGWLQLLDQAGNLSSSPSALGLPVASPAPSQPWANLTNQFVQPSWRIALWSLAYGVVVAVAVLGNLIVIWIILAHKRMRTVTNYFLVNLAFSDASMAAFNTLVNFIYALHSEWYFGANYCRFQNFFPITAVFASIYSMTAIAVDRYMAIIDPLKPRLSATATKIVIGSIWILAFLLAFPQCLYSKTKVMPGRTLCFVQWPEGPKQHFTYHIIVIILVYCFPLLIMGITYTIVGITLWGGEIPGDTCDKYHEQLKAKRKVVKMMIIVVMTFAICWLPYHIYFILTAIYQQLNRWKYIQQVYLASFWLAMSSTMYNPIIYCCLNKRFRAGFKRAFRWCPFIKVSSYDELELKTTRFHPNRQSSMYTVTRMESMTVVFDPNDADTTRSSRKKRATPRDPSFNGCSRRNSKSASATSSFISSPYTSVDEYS
- assayMethodText: Antagonist activity against human NK3 receptor expressed in HEK293 cells assessed as inhibition of MePhe7-NKB-induced increase of intracellular calcium level by fluorescent plate-reader analysis
- Assay type: functional, cell-based
- conditionSummary: in the assay text read “CHO cells” for “HEK293 cells”
pIC50: −log10 of the molar value.
attributeMeasured: pIC50

[P] CC(NC(=O)c1cc(-c2ccccc2)nc2ccccc12)c1ccccc1 (configuration not stated)
[Q] CCC(NC(=O)c1cc(-c2ccccc2)nc2ccccc12)c1ccccn1 (configuration not stated)
# input // pick larger pIC50 from pair: P vs Q Please respond with the label that marks your chosen entry.
# output Q
(Q: 5.85, P: 5.00)

---

- testedSystem: UniProt P29371
- assayMethodText: Antagonist activity against human NK3 receptor expressed in CHO cells assessed as inhibition of senktide-induced increase of intracellular calcium level at 50 uM after 10 mins by fluorescent plate-reader analysis relative to control
- Type: functional, cell-based
attributeMeasured: inhibition (%)

Recorded results for 8 compounds are shown here.
# input Given the compound O=C(NCc1ccccc1)c1cc(-c2ccccc2)nc2ccccc12 , what is its reported inhibition?
# output 30

# input Do the same for Cc1ccc(-c2cc(C(=O)NCc3ccc(F)cc3)c3ccccc3n2)cc1 please
# output 7

# input Do the same for CCC(NC(=O)c1cc(-c2ccccc2)nc2ccccc12)c1ccccn1 (stereo unspecified) please
# output 82

# input Do the same for CCOC(=O)c1nn(C)c2c1CN(C(=O)c1cc(-c3ccccc3)nc3ccccc13)CC2 please
# output 8

# input Do the same for COc1cccc(-c2nc3c(NCc4ccncc4)nccc3[nH]2)c1F please
# output 39

# input Do the same for CC(NC(=O)c1cc(-c2ccccc2)nc2ccccc12)c1ccccc1 (stereo unspecified) please
# output 61

# input Do the same for O=C(NCc1ccc(Cl)cc1)c1cc(-c2ccccc2Cl)nc2ccccc12 please
# output 14

# input Do the same for O=C(NCc1ccccn1)c1cc(-c2ccccc2)nc2ccccc12 please
# output 17

[a] O=C(NCc1ccc(Cl)cc1)c1cc(-c2ccc(Cl)cc2)nc2ccccc12
[b] O=C(NCCc1ccccc1)c1cc(-c2ccccc2)nc2ccccc12
[c] Cc1nc(-c2ccncc2)n2c1CN(C(=O)C1Cc3ccccc3O1)CC2 (stereo unspecified)
# input Arrange items by their inhibition values in increasing order. Show the ranking through the labels, in the order asked for.
# output c, a, b
(c: 6%, a: 13%, b: 54%)

---

- testedSystem: Neuromedin-K receptor (Homo sapiens) (UniProt P29371)
- assayMethodText: Antagonist activity against human NK3 receptor expressed in CHO cells assessed as inhibition of senktide-induced increase of intracellular calcium level at 50 uM after 10 mins by fluorescent plate-reader analysis relative to control
- Format: functional, cell-based
attributeMeasured: inhibition (%)

# input Given the molecule Cc1ccc(-c2cc(C(=O)NC(C)c3ccccc3)c3ccccc3n2)c(C)c1 (stereo not drawn) , what is its reported inhibition?
# output 18

# input Do the same for c1ccc(CNc2nccc3[nH]c(-c4ccccc4)nc23)cc1 please
# output 42

# input Do the same for COc1ccc(-c2cc(C(=O)NC(C)c3ccccn3)c3ccccc3n2)cc1OC (stereo not drawn) please
# output 16

[P] Cc1ccc(CNC(=O)c2cc(-c3ccccc3)nc3ccccc23)cc1
[Q] CCCN1N=C(C(=O)NC(C)c2ccccc2)C2CN(CC)CCC21 (stereo not drawn)
[R] Cc1ccc(CNC(=O)c2cc(-c3ccc(C)cc3C)nc3ccccc23)cc1
# input Arrange items by their inhibition values in increasing order. Show the ranking through the labels, in the order asked for.
# output Q, R, P
(Q: 6%, R: 9%, P: 21%)
